B1: BTBD10 (parent)
chain: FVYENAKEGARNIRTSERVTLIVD

Variants of: B1
Assay: protein stability index of a GFP-peptide fusion (GPS, HEK-293T) (PSI 1-6); higher = more stable;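 note: lentivirally expressed fusions sorted by FACS into six bins by GFP to DsRed ratio, PSI derived from sequencing read proportions per bin multiplied by bin number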
Details: c terminus: a fixed tail appended
Reported protein stability index values are given for each entry in this list.

>  <SEQUENCE CODE>
FVYENAKEGARNIRTSERVTLIND [V23N]

>  <protein stability index>
2.92

$$$$
>  <SEQUENCE CODE>
FVYENAKEGARNIRTSRRVTLIVD [E17R]

>  <protein stability index>
1.46

$$$$
>  <SEQUENCE CODE>
FVYENAKEGARNIRTSIRVTLIVD [E17I]

>  <protein stability index>
2.25

$$$$
>  <SEQUENCE CODE>
FVYENAKEGARPIRTSERVTLIVD [N12P]

>  <protein stability index>
2.65

$$$$
>  <SEQUENCE CODE>
FVYENAKEGARNIRTSESVTLIVD [R18S]

>  <protein stability index>
1.89

$$$$
>  <SEQUENCE CODE>
FVYPNAKEGARNIRTSERVTLIVD [E4P]

>  <protein stability index>
1.69

$$$$
>  <SEQUENCE CODE>
FVYENACEGARNIRTSERVTLIVD [K7C]

>  <protein stability index>
2.32

$$$$
>  <SEQUENCE CODE>
FVYENAKEGARNIRPSERVTLIVD [T15P]

>  <protein stability index>
1.81

$$$$
>  <SEQUENCE CODE>
FVYENAKEGARNIRTSERHTLIVD [V19H]

>  <protein stability index>
2.35

$$$$
>  <SEQUENCE CODE>
FVYENIKEGARNIRTSERVTLIVD [A6I]

>  <protein stability index>
1.79

$$$$
>  <SEQUENCE CODE>
FVYENAKCGARNIRTSERVTLIVD [E8C]

>  <protein stability index>
2.11

$$$$
>  <SEQUENCE CODE>
FVYENAKEGARNIRTSERVTLRVD [I22R]

>  <protein stability index>
2.24

$$$$
>  <SEQUENCE CODE>
FVYENAKEIARNIRTSERVTLIVD [G9I]

>  <protein stability index>
1.74

$$$$
>  <SEQUENCE CODE>
FVYENALEGARNIRTSERVTLIVD [K7L]

>  <protein stability index>
1.42

$$$$
>  <SEQUENCE CODE>
FKYENAKEGARNIRTSERVTLIVD [V2K]

>  <protein stability index>
3.06

$$$$
>  <SEQUENCE CODE>
FVYENYKEGARNIRTSERVTLIVD [A6Y]

>  <protein stability index>
1.57

$$$$
>  <SEQUENCE CODE>
FVYENAKEGARRIRTSERVTLIVD [N12R]

>  <protein stability index>
1.96

$$$$
>  <SEQUENCE CODE>
FVYENAKEGARNIRTSLRVTLIVD [E17L]

>  <protein stability index>
3.89

$$$$
>  <SEQUENCE CODE>
FVFENAKEGARNIRTSERVTLIVD [Y3F]

>  <protein stability index>
2.12

$$$$
>  <SEQUENCE CODE>
FVYENAKEGARNIRTSERVTLTVD [I22T]

>  <protein stability index>
2.41

$$$$
>  <SEQUENCE CODE>
FVIENAKEGARNIRTSERVTLIVD [Y3I]

>  <protein stability index>
2.26

$$$$
>  <SEQUENCE CODE>
FNYENAKEGARNIRTSERVTLIVD [V2N]

>  <protein stability index>
3.58

$$$$
>  <SEQUENCE CODE>
FVYENAKEGARNIRTSERVTFIVD [L21F]

>  <protein stability index>
1.88

$$$$
>  <SEQUENCE CODE>
FVYENAKHGARNIRTSERVTLIVD [E8H]

>  <protein stability index>
2.25

$$$$
>  <SEQUENCE CODE>
FVYENAKEGARNIRTSCRVTLIVD [E17C]

>  <protein stability index>
3.19

$$$$
>  <SEQUENCE CODE>
FVYENANEGARNIRTSERVTLIVD [K7N]

>  <protein stability index>
2.54

$$$$
>  <SEQUENCE CODE>
FVYENAKEGARNIRTNERVTLIVD [S16N]

>  <protein stability index>
2.64

$$$$
>  <SEQUENCE CODE>
FVYENAKEGARNIRTSERVTLYVD [I22Y]

>  <protein stability index>
1.81

$$$$
>  <SEQUENCE CODE>
FVYENAKEGARVIRTSERVTLIVD [N12V]

>  <protein stability index>
1.17

$$$$
>  <SEQUENCE CODE>
FVYENAKEGARNIRISERVTLIVD [T15I]

>  <protein stability index>
1.68

$$$$
>  <SEQUENCE CODE>
VVYENAKEGARNIRTSERVTLIVD [F1V]

>  <protein stability index>
3.7

$$$$
>  <SEQUENCE CODE>
FVYENAKEGARNIRTTERVTLIVD [S16T]

>  <protein stability index>
1.89

$$$$
>  <SEQUENCE CODE>
FVYENAKEGVRNIRTSERVTLIVD [A10V]

>  <protein stability index>
2.1

$$$$
>  <SEQUENCE CODE>
FVYENAKEGARNIRTSERVTLFVD [I22F]

>  <protein stability index>
2.06

$$$$
>  <SEQUENCE CODE>
FVYENAKEGARNIQTSERVTLIVD [R14Q]

>  <protein stability index>
2.08

$$$$
>  <SEQUENCE CODE>
FVYENAKEGARNIRTSERVTLKVD [I22K]

>  <protein stability index>
2.34

$$$$
>  <SEQUENCE CODE>
FVYENAKEGAGNIRTSERVTLIVD [R11G]

>  <protein stability index>
2.31

$$$$
>  <SEQUENCE CODE>
FVYENAKEGARNIRTSERMTLIVD [V19M]

>  <protein stability index>
1.62

$$$$
>  <SEQUENCE CODE>
NVYENAKEGARNIRTSERVTLIVD [F1N]

>  <protein stability index>
3.75

$$$$
>  <SEQUENCE CODE>
FVYENAKEGARNIRTSEMVTLIVD [R18M]

>  <protein stability index>
1.97

$$$$
>  <SEQUENCE CODE>
FVYENAKSGARNIRTSERVTLIVD [E8S]

>  <protein stability index>
1.72

$$$$
>  <SEQUENCE CODE>
FVYEDAKEGARNIRTSERVTLIVD [N5D]

>  <protein stability index>
2.21

$$$$
>  <SEQUENCE CODE>
FVYENAKEGARNIRTSERVTLVVD [I22V]

>  <protein stability index>
2.92

$$$$
>  <SEQUENCE CODE>
FVYENMKEGARNIRTSERVTLIVD [A6M]

>  <protein stability index>
2.08

$$$$
>  <SEQUENCE CODE>
FVYENAKKGARNIRTSERVTLIVD [E8K]

>  <protein stability index>
1.93

$$$$
>  <SEQUENCE CODE>
FVYENAKEGARNIRTSERWTLIVD [V19W]

>  <protein stability index>
1.53

$$$$
